Test system: SKOV3
protocol: Primary qHTS to identify gynecologic anti-cancer compounds using libraries of approved drugs and bioactive compounds (AID 1345084); note: % is set by controls: 0 for no effect and ±100 for the full control effect; nearly all actives have a fitted effect of over 55% in size
measurement parameters: Gynecologic cancer cell panel viability, ATPlite luminescence, 48 h; series mostly up to 57.5 µM
Inconclusive results are not listed. Active and inactive are the calls of the source. Calls come from the whole dose curve; as a rule, active = well fitted cell-killing curve with a large enough effect; inconclusive = small, poorly fitted or top-dose-only effect, or effect the other way; inactive = flat fitted curve, though single readings scatter.
value type: activity change, negative = cytotoxicity

CC[C@H](/C=C/[C@@H](C)[C@H]1CC[C@H]2[C@@H]3CC=C4C[C@@H](O)CC[C@]4(C)[C@H]3CC[C@]12C)C(C)C ... 8.88% [at 6.55 µM] (inactive)
CC(C)CC(=O)OC[C@H]1O[C@@](COC(=O)CC(C)C)(O[C@H]2O[C@H](CO)[C@@H](O)[C@H](O)[C@H]2OC(=O)CC(C)C)[C@@H](OC(=O)CC(C)C)[C@@H]1O ... inactive
COC(=O)CC1(O)C(=O)Nc2ccccc21 (stereo unspecified) ... inactive
CC1CCC2C(C(=O)O)=CC3C(O)C(C)(C)CC123 (stereo unspecified) ... inactive
COc1cccc2c1CCC[C@H]2CN(C)CCc1ccc2ccoc2c1 ... inactive
CC(=O)NC(C(=O)OC1CCC(C)(C)C2CC=C3C(=O)OCC3(O)C12C)C(C)C (stereo unspecified) ... inactive
C=CCc1ccc(O[C@@H]2O[C@H](CO[C@@H]3O[C@@H](C)[C@H](O)[C@@H](O)[C@H]3O)[C@@H](O)[C@H](O)[C@H]2O)cc1 ... inactive
CC1(C)C[C@H]2C3=CCC4[C@@]5(C)CC[C@H](O[C@H]6O[C@H](C(=O)O)[C@@H](O)[C@H](O)[C@H]6O[C@H]6O[C@H](CO)[C@@H](O)[C@H](O)[C@H]6O[C@@H]6O[C@H](CO)[C@@H](O)[C@H](O)[C@H]6O)[C@](C)(CO)C5CC[C@@]4(C)[C@]3(C)CC[C@@]2(C)[C@H](O[C@@H]2OC[C@H](O)[C@H](OC3O[C@H](CO)[C@@H](O)[C@H](O)[C@H]3O)[C@H]2O)[C@@H]1O (stereo partly specified) ... -2.8% [at 6.55 µM] (inactive)
CC1(CO)CC[C@]2(C(=O)O[C@@H]3O[C@H](CO)[C@@H](O)[C@H](O)[C@H]3O)CC[C@]3(C)C(=CCC4[C@@]5(C)C[C@H](O)[C@H](O[C@@H]6OC[C@@H](O)[C@H](O)[C@H]6O)[C@@](C)(CO)C5CC[C@]43C)C2C1 (stereo partly specified) ... 2.79% [at 11.6 µM] (inactive)
C[C@@H]1O[C@@H](O[C@H]2[C@H](O[C@H]3[C@H](O[C@H]4CC[C@@]5(C)C(CC[C@]6(C)C5CC=C5[C@@H]7CC(C)(C(=O)O)C[C@@H](O)[C@]7(C)CC[C@]56C)[C@@]4(C)CO)O[C@H](C(=O)O)[C@@H](O)[C@@H]3O)O[C@H](CO)[C@H](O)[C@@H]2O)[C@H](O)[C@H](O)[C@H]1O (stereo partly specified) ... 5.26% [at 11.6 µM] (inactive)

query: Which activity change, negative = cytotoxicity value belongs to COc1ncc(-c2ccc3c(Nc4cc(Oc5cc(F)cc(F)c5)cc(C(=O)O)c4)c(S(=O)(=O)NC4CC4)cnc3c2)c(OC)n1 ?
result: inactive

query: Endpoint output: activity change, negative = cytotoxicity of C=CC1C(O[C@@H]2O[C@H](CO)[C@@H](O)[C@H](O)[C@H]2O)OC=C(C(=O)OC)C1Cc1nccc2c1[nH]c1ccccc12 (stereo partly specified) . Value?
result: inactive

query: Looking for the measured activity change, negative = cytotoxicity of CC(C)NC[C@H](O)COc1ccc(CCOCC2CC2)cc1 , can you help?
result: inactive

query: Which activity change, negative = cytotoxicity reading was recorded for the compound c1ccc(C(OC2CCN(CCCc3nn[nH]n3)CC2)c2ccccc2)cc1 ?
result: inactive

query: Which activity change, negative = cytotoxicity value belongs to CC[C@H]1OC(=O)[C@H](C)[C@@H](OC2C[C@@](C)(OC)[C@@H](O)[C@H](C)O2)[C@H](C)[C@@H](OC2O[C@H](C)C[C@H](NC)[C@H]2O)[C@](C)(O)C[C@@H](C)CN(C)[C@H](C)[C@@H](O)[C@]1(C)O (stereo partly specified) ?
result: inactive

query: Fill in: activity change, negative = cytotoxicity of OC[C@H]1O[C@@H](Oc2cc(O)cc(-c3cc4ccc(O)cc4o3)c2)[C@H](O)[C@@H](O)[C@@H]1O is ___
result: inactive

query: Need activity change, negative = cytotoxicity of CC1=CC(=O)OC(C)(CC(C)(O)C(=O)O)C1 (stereo unspecified) , thanks.
result: inactive

query: Look up activity change, negative = cytotoxicity for this compound: N#CC1C(=O)Nc2scc(-c3ccc(-c4ccccc4O)cc3)c2C1=O (stereo unspecified)
result: inactive

query: Entry CC1(C)CCC2(C(=O)OC3OC(COC4OC(CO)C(O)C(O)C4O)C(O)C(O)C3O)CCC3(C)C(=CCC4C5(C)CCC(O)C(C)(C(=O)O)C5CCC43C)C2C1O (stereo unspecified) : reported activity change, negative = cytotoxicity = ?
result: 21% [at 11.6 µM] (inactive)

query: I would be grateful if you could share the reported activity change, negative = cytotoxicity for C[C@H]1C[C@H]2[C@@H]3CCC4=CC(=O)C=C[C@]4(C)[C@@]3(F)[C@@H](O)C[C@]2(C)[C@@]1(O)C(=O)COP(=O)(O)O .
result: inactive

query: Quick one: activity change, negative = cytotoxicity for C[C@@H]1C(=O)O[C@H]2CC34[C@H]5C[C@@H](C(C)(C)C)C36[C@@H](OC(=O)[C@@H]6O)OC4(C(=O)O5)[C@]21O (stereo partly specified) ?
result: inactive

query: # query: activity change, negative = cytotoxicity of entry CC1(C)CC[C@]2(C(=O)O[C@@H]3O[C@H](CO)[C@@H](O)[C@H](O)[C@H]3O)CC[C@]3(C)C(=CCC4[C@@]5(C)C[C@@H](O)[C@H](O)C(CO)(CO)C5CC[C@]43C)C2[C@@H]1O (stereo partly specified)
result: inactive
